Molecular target: LmxCLK1 (Leishmania mexicana, UniProt E9AMP2)
Sequence (E9AMP2 1-422): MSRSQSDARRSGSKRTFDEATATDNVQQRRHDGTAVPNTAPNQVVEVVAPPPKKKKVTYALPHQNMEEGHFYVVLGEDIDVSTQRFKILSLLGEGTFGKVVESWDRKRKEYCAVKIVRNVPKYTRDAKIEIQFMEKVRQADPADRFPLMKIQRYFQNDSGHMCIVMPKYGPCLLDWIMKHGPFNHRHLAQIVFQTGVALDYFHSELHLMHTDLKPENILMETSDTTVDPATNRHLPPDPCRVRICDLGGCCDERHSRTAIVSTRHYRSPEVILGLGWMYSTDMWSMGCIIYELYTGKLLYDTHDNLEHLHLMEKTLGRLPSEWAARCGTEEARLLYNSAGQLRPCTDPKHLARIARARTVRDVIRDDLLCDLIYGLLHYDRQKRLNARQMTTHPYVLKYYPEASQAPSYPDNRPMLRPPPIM
Test: biochemical
Format: binding
Conditions: DSF, 10 µM compound, 2 µM LmxCLK1, Run 1; read-out: ΔTm Run 1
Measure: ΔTm at 10 µM

[[record]]
compound = "Oc1cccc(-c2nc(N3CCOCC3)c3oc4ncccc4c3n2)c1 [PI-103]"
readout_value = "0 °C"

[[record]]
compound = "CCOc1ccn(-c2ccc(F)cc2)c(=O)c1C(=O)Nc1ccc(Oc2ccnc(N)c2Cl)c(F)c1 [BMS-777607]"
readout_value = "0.5 °C"

[[record]]
compound = "CN(C)Cc1cccc(N/C(=C2\\C(=O)Nc3cc(C(N)=O)ccc32)c2ccccc2)c1 [BIX 02188]"
readout_value = "0.1 °C"

[[record]]
compound = "COCC(=O)NC/C=C/c1ccc2ncnc(Nc3ccc(Oc4ccc(C)nc4)c(C)c3)c2c1 [CP-724714]"
readout_value = "0.6 °C"

[[record]]
compound = "O=C(Nc1ccc(-c2ccnc(Nc3ccc(N4CCOCC4)cc3)n2)cc1)C1CCCN1 (stereo not drawn) [XL019]"
readout_value = "0.6 °C"

[[record]]
compound = "Cc1nc(N)sc1-c1ccnc(Nc2ccc(N3CCOCC3)cc2)n1 [CYC116]"
readout_value = "0.4 °C"

[[record]]
compound = "O=C(c1ccc(/C=C/c2n[nH]c3ccccc23)cc1)N1CCNCC1 [KW-2449]"
readout_value = "0.4 °C"

[[record]]
compound = "Cc1cc(C(=O)NOCCO)c(Nc2ccc(I)cc2F)n(C)c1=O [AZD8330]"
readout_value = "0.5 °C"

[[record]]
compound = "FC(F)c1nc2ccccc2n1-c1nc(N2CCOCC2)nc(N2CCOCC2)n1 [ZSTK474]"
readout_value = "0 °C"


The reported numbers originate from paper PMC7619385.
